In this section we review reported cytotoxicity at 10 µM values for a set of molecules.
Test: Toxicity liver stage against HepG2, at 10uM
Type: cell-based
Set-up: test concentration 10 uM, cell line HepG2-A16-CD81EGFP
Settings: human, HepG2-A16-CD81EGFP cells; read-out: INHIBITION
Provide the reading as a plain figure in %.

O=C(Nc1cccn(Cc2ccccc2)c1=O)c1ccncc1F : 14.8
Cc1noc(C)c1CN1CCO[C@H]2CN(CC3CC3)C[C@H]21 : -4.25

Using the record for OCC1(O)CCCN(Cc2nnc(-c3ccccc3)o2)CC1 (stereo not given) , state its measured cytotoxicity at 10 µM. -3.69

Using the record for "CCCOc1ccc(Cl)cc1CNc1ncnc2oc(C)nc12" , state its measured cytotoxicity at 10 µM. 9.98

Using the record for CC(=O)N1CC(=O)N(c2cnn(C)c2)CC12CCN(Cc1ccsc1)C2 (stereo not given) , state its measured cytotoxicity at 10 µM. -17.6
